System: Aspergillus niger (CMCC 98003)
Experiment Description: Minimum inhibitory concentration (MIC) assay, Example 33
Type: cell-based
Condition Context: n = 2
Counter-ions that a name gives are not always drawn.
Entries and their MIC Aspergillus niger

Compound	Experimental Target	MIC Aspergillus niger
CCCCCCCCCCCCCCOC(=O)C(C)N(C)C (stereo not drawn) [Nex-66, hydrochloride]	Aspergillus niger (CMCC 98003)	>12.5 mg/mL
CCCCCCCCCCCCOC(=O)C(C)N(C)C.CCCCCCCCCCCCOC(=O)C(C)N(C)C.O=S(=O)(O)c1cccc2c(S(=O)(=O)O)cccc12 (stereo not drawn)	Aspergillus niger (CMCC 98003)	>12.5 mg/mL
CCCCCCCCCCCCOC(=O)C(Cc1ccccc1)N(C)C (stereo not drawn) [Nex-54, hydrochloride]	Aspergillus niger (CMCC 98003)	12.5 mg/mL
CCCCCCCCCCCCOC(=O)C(C(C)C)N(C)C (stereo not drawn) [Nex-53, hydrochloride]	Aspergillus niger (CMCC 98003)	>12.5 mg/mL
CCCCCCCCCCCCOC(=O)CN(C)C [Nex-52, hydrochloride]	Aspergillus niger (CMCC 98003)	3.13 mg/mL
CCCCCCCCCCCC(C)OC(=O)C(C)N(C)C (stereo not drawn) [Nex-64, hydrochloride]	Aspergillus niger (CMCC 98003)	>12.5 mg/mL
CCCCCCCCCCOC(=O)C(C)N(C)C (stereo not drawn) [Nex-68, hydrochloride]	Aspergillus niger (CMCC 98003)	3.13 mg/mL
CCCCCCCCCCCCOC(=O)C(C)(C)N(C)C [Nex-58, hydrochloride]	Aspergillus niger (CMCC 98003)	>12.5 mg/mL
CCCCCCCCCCCCOC(=O)C(C)N(C)C (stereo not drawn) [Nex-46]	Aspergillus niger (CMCC 98003)	>12.5 mg/mL

====

Entries and their Viable counts, Escherichia coli time kill study
Test system: Escherichia coli
Experiment Description: Extended time kill study, Example 34 (0 to 24 h)
Type: cell-based
Condition Context: 4 × MIC, 1 h
Where a name gives a salt, the structure may show the parent alone.
Assay Readout: Viable counts, Escherichia coli time kill study

Compound	Readout Value
CCCCCCCCCCCCOC(=O)C(C)NCCO.Cl (centres unmarked) [Nex-61]	<1 Log10 CFU/mL
CCCCCCCCCCCCOC(=O)C(C)NC(C)C.Cl (centres unmarked) [Nex-60]	<1 Log10 CFU/mL
CCCCCCCCCCCCOC(=O)C(C)N(C)C (centres unmarked) [Nex-05, hydrochloride]	<1 Log10 CFU/mL
CCCCCCCCCCCCOC(=O)C(C)NC.Cl (centres unmarked) [Nex-59]	<1 Log10 CFU/mL
CCCCCCCCCCCCOC(=O)C(C)NCCN(CC)CC.Cl (centres unmarked) [Nex-62]	<1 Log10 CFU/mL

====

Entries and their Viable counts in Log10 CFU/mL
Test system: Candida albicans
Experiment Description: Extended time kill study, Example 34 (0 to 24 h)
Assay type: cell-based
Condition Context: 4 × MIC, 6 h
Counter-ions that a name gives are not always drawn.

Compound	Viable counts in Log10 CFU/mL
CCCCCCCCCCCCOC(=O)C(C)N(C)C (centres unmarked) [Nex-05, hydrochloride]	<2.70 Log10 CFU/mL
CCCCCCCCCCCCOC(=O)C(C)NC(C)C.Cl (centres unmarked) [Nex-60]	<2.70 Log10 CFU/mL
CCCCCCCCCCCCOC(=O)C(C)NCCN(CC)CC.Cl (centres unmarked) [Nex-62]	4.53 Log10 CFU/mL
CCCCCCCCCCCCOC(=O)C(C)NC.Cl (centres unmarked) [Nex-59]	<2.70 Log10 CFU/mL
CCCCCCCCCCCCOC(=O)C(C)NCCO.Cl (centres unmarked) [Nex-61]	<2.70 Log10 CFU/mL

====

Tested on: Escherichia coli (ATCC 25922)
Experiment Description: Time kill study, Example 33 (0 to 5 min)
Assay type: cell-based
Condition Context: 1×MIC, 1 min
Counter-ions that a name gives are not always drawn.
Entries and their Viable counts, Escherichia coli time kill study
Assay Readout: Viable counts, Escherichia coli time kill study (Log10 CFU/mL)

Molecule	Reading Qualifier	Readout Value
CCCCCCCCCCCCOC(=O)C(C)(C)N(C)C [Nex-58, hydrochloride]	<	3.70
CCCCCCCCCCCCOC(=O)C(C)NC.Cl (centres unmarked)	=	5.11
CCCCCCCCCCCC(C)OC(=O)C(C)N(C)C (centres unmarked) [Nex-64, hydrochloride]	=	5.7
CCCCCCCCCCCCOC(=O)C(C)N(C)C (centres unmarked) [Nex-46]	=	5.91
CCCCCCCCCCCCOC(=O)C(C)NCCN(CC)CC.Cl (centres unmarked)	=	5.02
CCCCCCCCCCCCOC(=O)CN(C)C [Nex-52, hydrochloride]	=	5.86
CCCCCCCCCCCC(C)(C)OC(=O)C(C)N(C)C.Cl (centres unmarked)	=	5.97
CCCCCCCCCCCOC(=O)C(C)N(C)C (centres unmarked) [Nex-67, hydrochloride]	=	5.28
CCCCCCCCCCOC(=O)C(C)N(C)C (centres unmarked) [Nex-68, hydrochloride]	=	4.3
CCCCCCCCCCCCOC(=O)C(C)N(C)C.CCCCCCCCCCCCOC(=O)C(C)N(C)C.O=S(=O)(O)c1cccc2c(S(=O)(=O)O)cccc12 (centres unmarked)	=	4.7
CCCCCCCCCCCCOC(=O)[C@H](C)N(C)C.Cl	<	3.70
CCCCCCCCCCCCOC(=O)C(C)NCCO.Cl (centres unmarked)	=	5.61
CCCCCCCCCCCCCOC(=O)C(C)N(C)C (centres unmarked) [Nex-69, hydrochloride]	=	5.54
CCCCCCCCOC(=O)C(C)N(C)C (centres unmarked) [Nex-70, hydrochloride]	<	3.70
CCCCCCCCCCCCOC(=O)C(C)N(C)C (centres unmarked) [Nex-30]	=	3.7
CCCCCCCCCCCCOC(=O)C(C)NC(C)C.Cl (centres unmarked)	=	3.7
CCCCCCCCCCCCOC(=O)C(C(C)C)N(C)C (centres unmarked) [Nex-53, hydrochloride]	=	5.71
CCCCCCCCCCCCCCOC(=O)C(C)N(C)C (centres unmarked) [Nex-66, hydrochloride]	=	6.03
CCCCCCCCCCCCOC(=O)C(CC(C)C)N(C)C (centres unmarked) [Nex-55, hydrochloride]	=	5.51
CCCCCCCCCCCCOC(=O)[C@@H](C)N(C)C.Cl	<	3.70

====

System: Aspergillus niger (CMCC 98003)
Experiment Description: Minimum inhibitory concentration (MIC) assay, Example 33
Type: cell-based
Condition Context: n = 2
Where a name gives a salt, the structure may show the parent alone.
Assay Readout: MIC Aspergillus niger

Compound	Experimental Target	Assay Readout	Readout Value
CCCCCCCCCCCCOC(=O)[C@H](C)N(C)C.Cl	Aspergillus niger (CMCC 98003)	MIC Aspergillus niger	>12.5 mg/mL
CCCCCCCCOC(=O)C(C)N(C)C (centres unmarked) [Nex-70, hydrochloride]	Aspergillus niger (CMCC 98003)	MIC Aspergillus niger	12.5 mg/mL
CCCCCCCCCCCCCOC(=O)C(C)N(C)C (centres unmarked) [Nex-69, hydrochloride]	Aspergillus niger (CMCC 98003)	MIC Aspergillus niger	>12.5 mg/mL
C[C@@H]1[C@H](O)[C@@H](C)/C=C/C=C/C=C/C=C/C=C/C=C/C=C/[C@H](O[C@@H]2O[C@H](C)[C@@H](O)[C@H](N)[C@@H]2O)C[C@@H]2O[C@](O)(C[C@@H](O)C[C@@H](O)[C@H](O)CC[C@@H](O)C[C@@H](O)CC(=O)O[C@H]1C)C[C@H](O)[C@H]2C(=O)O [Amphotericin B, reference compound]	Aspergillus niger (CMCC 98003)	MIC Aspergillus niger	2 mg/mL
CCCCCCCCCCCCOC(=O)[C@@H](C)N(C)C.Cl	Aspergillus niger (CMCC 98003)	MIC Aspergillus niger	>12.5 mg/mL
CCCCCCCCCCCCOC(=O)C(C)N(C)C (centres unmarked) [Nex-30]	Aspergillus niger (CMCC 98003)	MIC Aspergillus niger	>12.5 mg/mL
CCCCCCCCCCCOC(=O)C(C)N(C)C (centres unmarked) [Nex-67, hydrochloride]	Aspergillus niger (CMCC 98003)	MIC Aspergillus niger	12.5 mg/mL
CCCCCCCCCCCCOC(=O)C(CC(C)C)N(C)C (centres unmarked) [Nex-55, hydrochloride]	Aspergillus niger (CMCC 98003)	MIC Aspergillus niger	>12.5 mg/mL

====

Entries and their MIC
Tested on: Candida albicans (ATCC 90029)
Experiment Description: Minimum inhibitory concentration (MIC) assay, Example 33
Type: cell-based
Condition Context: Candida albicans, ATCC90029, read-out: MIC Candida albicans, n = 2
Structures can show the parent of a compound that is named as a salt.
Assay Readout: MIC (µg/mL)

Compound	Experimental Target	Assay Readout	Units Symbol	Reading Qualifier	Readout Value
CCCCCCCCCCCCOC(=O)C(C)N(C)C (stereo not drawn) [Nex-05, hydrochloride]	Candida albicans (ATCC 90029)	MIC	µg/mL	>	12500
CCCCCCCCOC(=O)C(C)N(C)C (stereo not drawn) [Nex-70, hydrochloride]	Candida albicans (ATCC 90029)	MIC	µg/mL	=	780
CCCCCCCCCCCCOC(=O)CN(C)C [Nex-52, hydrochloride]	Candida albicans (ATCC 90029)	MIC	µg/mL	=	50
CCCCCCCCCCCCOC(=O)C(CC(C)C)N(C)C (stereo not drawn) [Nex-55, hydrochloride]	Candida albicans (ATCC 90029)	MIC	µg/mL	>	12500
CCCCCCCCCCCC(C)OC(=O)C(C)N(C)C (stereo not drawn) [Nex-64, hydrochloride]	Candida albicans (ATCC 90029)	MIC	µg/mL	>	12500
CCCCCCCCCCCCCCOC(=O)C(C)N(C)C (stereo not drawn) [Nex-66, hydrochloride]	Candida albicans (ATCC 90029)	MIC	µg/mL	>	12500
CCCCCCCCCCCCOC(=O)C(C)(C)N(C)C [Nex-58, hydrochloride]	Candida albicans (ATCC 90029)	MIC	µg/mL	>	12500
CCCCCCCCCCCOC(=O)C(C)N(C)C (stereo not drawn) [Nex-67, hydrochloride]	Candida albicans (ATCC 90029)	MIC	µg/mL	=	6250
CCCCCCCCCCOC(=O)C(C)N(C)C (stereo not drawn) [Nex-68, hydrochloride]	Candida albicans (ATCC 90029)	MIC	µg/mL	=	200
CCCCCCCCCCCCOC(=O)C(Cc1ccccc1)N(C)C (stereo not drawn) [Nex-54, hydrochloride]	Candida albicans (ATCC 90029)	MIC	µg/mL	=	6250
CCCCCCCCCCCCCOC(=O)C(C)N(C)C (stereo not drawn) [Nex-69, hydrochloride]	Candida albicans (ATCC 90029)	MIC	µg/mL	=	12500
CCCCCCCCCCCCOC(=O)C(C(C)C)N(C)C (stereo not drawn) [Nex-53, hydrochloride]	Candida albicans (ATCC 90029)	MIC	µg/mL	>	12500
